assay_name: chemical genetic growth profiling, strain panel (AID 1159580);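 note: tested at 20 µM; growth read once vehicle control cultures reached saturation at 30 °C; 1 = growth at the plate median or of vehicle wells; lower values mean less growth of the strain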
settings: S. cerevisiae deletion strains, growth OD, locus YBR229C, strain ROT2, active compounds read low
The campaign covered roughly 5,500 compounds. About 2,000 (36%) were called active. Roughly 18% stayed inconclusive and do not appear here. The list shows a part of the results.
metric_name: normalized growth
Lab note: record the figure alone, no unit after it.

Query :: Please give the measured normalized growth for this compound: CN1CCN(C2=Nc3ccccc3Oc3ccc(Cl)cc32)CC1
Result :: 0.953

Query :: Please give the measured normalized growth for this compound: Cc1ccc(S(=O)(=O)Nc2ccc(C)c([N+](=O)[O-])c2)cc1
Result :: 0.988

Query :: Please give the measured normalized growth for this compound: Cc1ccc2cc(NC(=O)c3ccco3)ccc2n1
Result :: 0.998

Query :: Please give the measured normalized growth for this compound: CN(C)CCOC(=O)COc1ccc(Cl)cc1
Result :: 1.01

Query :: Please give the measured normalized growth for this compound: Clc1ccc2c(c1)C(N1CCNCC1)=Nc1ccccc1O2
Result :: 0.952

* * *

assay_name: chemical genetic growth profiling, strain panel (AID 1159580)
settings: S. cerevisiae deletion strains, growth OD, locus YMR205C, strain PFK2, active compounds read low
About 2,000 (36%) of roughly 5,500 compounds were called active. Not shown: some 18% with an inconclusive outcome. The list shows a part of the results.
metric_name: normalized growth
Lab note: record the figure alone, no unit after it.

Query :: Please give the measured normalized growth for this compound: C[C@@H]1O[C@@H](O[C@H]2C[C@@H](O)[C@]3(CO)C4C(CC[C@]3(O)C2)[C@@]2(O)CC[C@H](C3=CC(=O)OC3)[C@@]2(C)C[C@H]4O)[C@H](O)[C@H](O)[C@H]1O (some centres not stated)
Result :: 0.995

Query :: Please give the measured normalized growth for this compound: CCCCC[C@H](CC(=O)NO)C(=O)N[C@H](C(=O)N1CCC[C@H]1CO)C(C)C
Result :: 1.04

Query :: Please give the measured normalized growth for this compound: CSc1ccc2c(c1)N(CCC1CCCCN1C)c1ccccc1S2 (configuration not stated)
Result :: 0.966

Query :: Please give the measured normalized growth for this compound: CC(CCC(=O)O)[C@H]1CCC2C3C(C[C@H](O)[C@@]21C)[C@@]1(C)CC[C@@H](O)C[C@H]1C[C@H]3O (some centres not stated)
Result :: 1.02

Query :: Please give the measured normalized growth for this compound: CC1CCC2(OC1)OC1CC3C4CCC5C[C@@H](O)CCC5(C)C4=CCC3(C)C1[C@@H]2C (some centres not stated)
Result :: 0.997

Query :: Please give the measured normalized growth for this compound: COC(=O)CCC(C)[C@H]1CCC2C3C(C[C@H](O)[C@@]21C)[C@@]1(C)CC[C@@H](O)C[C@H]1C[C@H]3O (some centres not stated)
Result :: 1.02

Query :: Please give the measured normalized growth for this compound: CC(=O)Nc1nnc(S(N)(=O)=O)s1
Result :: 1.01

* * *

assay_name: chemical genetic growth profiling, strain panel (AID 1159580)
settings: S. cerevisiae deletion strains, growth OD, locus YEL061C, strain CIN8, active compounds read low
The campaign covered roughly 5,500 compounds. About 2,000 (36%) were called active. About 18% were inconclusive and are not listed. This is one part of the list.
metric_name: normalized growth
Lab note: record the figure alone, no unit after it.

Query :: Please give the measured normalized growth for this compound: CC(CN(C)C)CN1c2ccccc2Sc2ccccc21 (stereo not drawn)
Result :: 0.994

Query :: Please give the measured normalized growth for this compound: CC(CN1c2ccccc2Sc2cccnc21)N(C)C (stereo not drawn)
Result :: 1.02

Query :: Please give the measured normalized growth for this compound: N/C(=N/O)c1csc(-c2ccc(F)cc2F)n1
Result :: 1.01

Query :: Please give the measured normalized growth for this compound: CNCCCN1c2ccccc2CCc2ccccc21
Result :: 1.01

Query :: Please give the measured normalized growth for this compound: COc1ccc(C=C2C(=O)NC(=S)NC2=O)cc1Br
Result :: 0.992

Query :: Please give the measured normalized growth for this compound: CCC(=O)c1ccc2c(c1)N(CC(C)N(C)C)c1ccccc1S2 (stereo not drawn)
Result :: 0.998

Query :: Please give the measured normalized growth for this compound: CC(CN1c2ccccc2Sc2ccccc21)N(C)C (stereo not drawn)
Result :: 0.977

Query :: Please give the measured normalized growth for this compound: CC(CN(C)C)CN1c2ccccc2CCc2ccccc21 (stereo not drawn)
Result :: 1.01

* * *

assay_name: chemical genetic growth profiling, strain panel (AID 1159580)
settings: S. cerevisiae deletion strains, growth OD, locus YPL204W, strain HRR25, active compounds read low
Screen size: about 5,500 compounds; about 2,000 (36%) were called active. Inconclusive results (about 18%) are left out. Some of the results follow.
Field: normalized growth. Provide a value for each of the compounds that follow.

Query :: Please give the measured normalized growth for this compound: Cc1ccc(N2C(=O)CSC2c2ccc(Cl)c(Cl)c2)cc1Cl (stereo not drawn)
Result :: 0.933 (inactive)

Query :: Please give the measured normalized growth for this compound: C/C(=N/Nc1ccccc1)c1cc(Cl)cc(Cl)c1O
Result :: 0.737 (inactive)

Query :: Please give the measured normalized growth for this compound: Oc1ccc(N=Nc2ccccn2)c(O)c1
Result :: 0.102 (active)

Query :: Please give the measured normalized growth for this compound: O=C1/C(=C/c2ccc(C(F)(F)F)cc2)COc2ccccc21
Result :: 0.921 (inactive)

Query :: Please give the measured normalized growth for this compound: O=C(Nc1ccc(Cl)cc1)O/N=C\c1ccn(-c2ccccc2)n1
Result :: 0.869 (inactive)

Query :: Please give the measured normalized growth for this compound: O=C1CSC(c2ccc(C(F)(F)F)cc2)N1c1ccc(C(F)(F)F)cc1 (stereo not drawn)
Result :: 0.959 (inactive)

Query :: Please give the measured normalized growth for this compound: CSC(=NNc1ccccc1)NC(=O)c1c(Cl)cccc1Cl
Result :: 0.906 (inactive)

Query :: Please give the measured normalized growth for this compound: CNC(=O)n1nc(C)c(Cc2csc3ccc(Cl)cc23)c1C
Result :: 0.926 (inactive)

* * *

assay_name: chemical genetic growth profiling, strain panel (AID 1159580);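 note: tested at 20 µM; growth read once vehicle control cultures reached saturation at 30 °C; 1 = growth at the plate median or of vehicle wells; lower values mean less growth of the strain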
settings: S. cerevisiae deletion strains, growth OD, locus YNL298W, strain CLA4 (second series), active compounds read low
Out of some 5,500 compounds screened, about 2,000 (36%) were called active. Not shown: some 18% with an inconclusive outcome. The list shows a part of the results.
metric_name: normalized growth

Query :: Please give the measured normalized growth for this molecule: COc1ccc2c(c1)CCCN2C(=O)NC(=O)c1c(F)cccc1Cl
Result :: 1.03 (inactive)

Query :: Please give the measured normalized growth for this molecule: O=C(NCc1nc(-c2ccc(C(F)(F)F)cc2)no1)Nc1ccc(F)cc1F
Result :: 1.03 (inactive)

Query :: Please give the measured normalized growth for this molecule: O=C(O)CC(CC(=O)Nc1ccc(I)cc1F)c1ccc(C(F)(F)F)cc1 (centres undefined)
Result :: 1.05 (inactive)

Query :: Please give the measured normalized growth for this molecule: COc1ccc(C(=O)C2CCNCC2)cc1
Result :: 0.998 (inactive)

* * *

Field: normalized growth. Provide a value for each of the molecules that follow.
assay_name: chemical genetic growth profiling, strain panel (AID 1159580);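 note: tested at 20 µM; growth read once vehicle control cultures reached saturation at 30 °C; 1 = growth at the plate median or of vehicle wells; lower values mean less growth of the strain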
settings: S. cerevisiae deletion strains, growth OD, locus YNL298W, strain CLA4 (second series), active compounds read low
In all, about 5,500 compounds went through this assay and about 2,000 (36%) were called active. Inconclusive results (about 18%) are left out. This is one part of the list.
Lab note: record the figure alone, no unit after it.

Query :: Please give the measured normalized growth for this molecule: Cc1cc(NS(=O)(=O)c2ccc(NS(=O)(=O)c3ccc(Cl)cc3)cc2)no1
Result :: 1.03

Query :: Please give the measured normalized growth for this molecule: O=C1CSC(c2ccc(Cl)c(Cl)c2)N1c1ccc(F)cc1 (stereo not drawn)
Result :: 0.93

Query :: Please give the measured normalized growth for this molecule: C/C(=N/Nc1c(Cl)cc(Cl)cc1Cl)c1cc(F)ccc1OC(=O)c1ccccc1F
Result :: 1.07

* * *

assay_name: chemical genetic growth profiling, strain panel (AID 1159580);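 note: tested at 20 µM; growth read once vehicle control cultures reached saturation at 30 °C; 1 = growth at the plate median or of vehicle wells; lower values mean less growth of the strain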
settings: S. cerevisiae deletion strains, growth OD, locus YPL256C, strain CLN2, active compounds read low
The whole screen tested about 5,500 compounds, of which about 2,000 (36%) were called active. Not shown: some 18% with an inconclusive outcome. The list shows a part of the results.
metric_name: normalized growth
Lab note: record the figure alone, no unit after it.

Query :: Please give the measured normalized growth for this compound: N#C/C(=C\c1cccc(O)c1)C(=O)O
Result :: 0.977

Query :: Please give the measured normalized growth for this compound: CN(C)C(=O)Nc1ccc(Cl)c(Cl)c1
Result :: 0.975

Query :: Please give the measured normalized growth for this compound: NC(Cc1ccc(F)cc1)C(=O)O (stereo not drawn)
Result :: 1.02

Query :: Please give the measured normalized growth for this compound: c1ccc2nc(N3CCNCC3)ccc2c1
Result :: 0.988

Query :: Please give the measured normalized growth for this compound: C[C@H](CCC(=O)O)[C@H]1CCC2C3C(CC[C@@]21C)[C@@]1(C)CC[C@@H](O)C[C@H]1C[C@H]3O (stereo partly drawn)
Result :: 0.952

Query :: Please give the measured normalized growth for this compound: CCCCC[C@H](CC(=O)NO)C(=O)N[C@H](C(=O)N1CCC[C@H]1CO)C(C)C
Result :: 0.941

Query :: Please give the measured normalized growth for this compound: Nc1cc(-c2ccncc2)c[nH]c1=O
Result :: 1.08

Query :: Please give the measured normalized growth for this compound: N[C@@H](Cc1cc(I)c(Oc2ccc(O)c(I)c2)c(I)c1)C(=O)O
Result :: 0.964
